- measured.on: PDGFRB (Homo sapiens, UniProt P09619)
- Construct: Kinases are expressed as either kinase domains or full length constructs; made in house
- Sequence (P09619 33-1106, species assumed): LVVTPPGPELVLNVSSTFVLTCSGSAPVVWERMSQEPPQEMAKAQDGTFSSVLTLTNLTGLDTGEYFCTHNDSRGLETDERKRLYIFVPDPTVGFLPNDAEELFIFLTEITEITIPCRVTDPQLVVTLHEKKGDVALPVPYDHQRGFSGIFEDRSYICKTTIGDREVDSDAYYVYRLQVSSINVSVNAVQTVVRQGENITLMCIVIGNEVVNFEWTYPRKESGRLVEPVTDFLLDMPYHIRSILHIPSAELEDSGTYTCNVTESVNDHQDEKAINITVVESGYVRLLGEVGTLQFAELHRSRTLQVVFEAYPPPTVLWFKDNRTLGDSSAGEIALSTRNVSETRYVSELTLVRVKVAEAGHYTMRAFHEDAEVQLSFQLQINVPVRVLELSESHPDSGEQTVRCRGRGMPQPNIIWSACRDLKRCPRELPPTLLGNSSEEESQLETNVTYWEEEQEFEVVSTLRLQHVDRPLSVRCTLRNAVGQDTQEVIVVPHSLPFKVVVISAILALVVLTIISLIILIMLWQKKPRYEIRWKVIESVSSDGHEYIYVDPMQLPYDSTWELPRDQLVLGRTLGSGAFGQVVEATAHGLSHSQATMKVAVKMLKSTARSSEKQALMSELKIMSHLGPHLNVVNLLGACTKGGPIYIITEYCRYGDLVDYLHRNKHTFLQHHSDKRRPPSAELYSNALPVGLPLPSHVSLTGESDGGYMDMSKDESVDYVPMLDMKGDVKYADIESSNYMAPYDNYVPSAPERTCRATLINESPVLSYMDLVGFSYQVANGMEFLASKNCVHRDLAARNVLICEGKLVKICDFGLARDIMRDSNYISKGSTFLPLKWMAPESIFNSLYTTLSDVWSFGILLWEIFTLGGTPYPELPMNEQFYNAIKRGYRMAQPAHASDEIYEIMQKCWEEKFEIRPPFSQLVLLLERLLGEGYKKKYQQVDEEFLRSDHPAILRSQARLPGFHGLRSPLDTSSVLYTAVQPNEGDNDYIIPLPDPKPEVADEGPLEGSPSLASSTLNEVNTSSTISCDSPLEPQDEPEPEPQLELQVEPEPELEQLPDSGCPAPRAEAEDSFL
- assay.remarks: Kinase inhibition assay (33P transfer), PDGFRB
- Type: biochemical
- cond: read-out: PDGFRB-1
pIC50: −log10 of the molar value.
The compounds listed here are annotated with their pIC50.

See these solved cases before continuing.
compound	measured.on	pIC50
COc1cc(Nc2ncnc(Oc3ccc(OCc4ccccc4)cc3)n2)cc(OC)c1OC	PDGFRB (Homo sapiens, UniProt P09619)	< 5.01
COc1cc(Nc2ncnc(-c3cccnc3Nc3ccccc3C)n2)cc(OC)c1OC	PDGFRB (Homo sapiens, UniProt P09619)	> 6.05
COc1ccc(Nc2ncnc(N(C)CC(O)c3ccccc3)n2)cc1OC (stereo not shown)	PDGFRB (Homo sapiens, UniProt P09619)	5.20 to 5.98

Turning now to a further compound:
Retrieve pIC50 on PDGFRB (Homo sapiens, UniProt P09619); query O=C(O)Cc1cccc(Nc2ncnc(Nc3ccc(Cl)cc3F)n2)c1
> 5.97

* * *

- measured.on: Kdr (Homo sapiens, UniProt P35968)
- Construct: Kinases are expressed as either kinase domains or full length constructs; made in house
- Sequence (P35968 20-1356, species assumed): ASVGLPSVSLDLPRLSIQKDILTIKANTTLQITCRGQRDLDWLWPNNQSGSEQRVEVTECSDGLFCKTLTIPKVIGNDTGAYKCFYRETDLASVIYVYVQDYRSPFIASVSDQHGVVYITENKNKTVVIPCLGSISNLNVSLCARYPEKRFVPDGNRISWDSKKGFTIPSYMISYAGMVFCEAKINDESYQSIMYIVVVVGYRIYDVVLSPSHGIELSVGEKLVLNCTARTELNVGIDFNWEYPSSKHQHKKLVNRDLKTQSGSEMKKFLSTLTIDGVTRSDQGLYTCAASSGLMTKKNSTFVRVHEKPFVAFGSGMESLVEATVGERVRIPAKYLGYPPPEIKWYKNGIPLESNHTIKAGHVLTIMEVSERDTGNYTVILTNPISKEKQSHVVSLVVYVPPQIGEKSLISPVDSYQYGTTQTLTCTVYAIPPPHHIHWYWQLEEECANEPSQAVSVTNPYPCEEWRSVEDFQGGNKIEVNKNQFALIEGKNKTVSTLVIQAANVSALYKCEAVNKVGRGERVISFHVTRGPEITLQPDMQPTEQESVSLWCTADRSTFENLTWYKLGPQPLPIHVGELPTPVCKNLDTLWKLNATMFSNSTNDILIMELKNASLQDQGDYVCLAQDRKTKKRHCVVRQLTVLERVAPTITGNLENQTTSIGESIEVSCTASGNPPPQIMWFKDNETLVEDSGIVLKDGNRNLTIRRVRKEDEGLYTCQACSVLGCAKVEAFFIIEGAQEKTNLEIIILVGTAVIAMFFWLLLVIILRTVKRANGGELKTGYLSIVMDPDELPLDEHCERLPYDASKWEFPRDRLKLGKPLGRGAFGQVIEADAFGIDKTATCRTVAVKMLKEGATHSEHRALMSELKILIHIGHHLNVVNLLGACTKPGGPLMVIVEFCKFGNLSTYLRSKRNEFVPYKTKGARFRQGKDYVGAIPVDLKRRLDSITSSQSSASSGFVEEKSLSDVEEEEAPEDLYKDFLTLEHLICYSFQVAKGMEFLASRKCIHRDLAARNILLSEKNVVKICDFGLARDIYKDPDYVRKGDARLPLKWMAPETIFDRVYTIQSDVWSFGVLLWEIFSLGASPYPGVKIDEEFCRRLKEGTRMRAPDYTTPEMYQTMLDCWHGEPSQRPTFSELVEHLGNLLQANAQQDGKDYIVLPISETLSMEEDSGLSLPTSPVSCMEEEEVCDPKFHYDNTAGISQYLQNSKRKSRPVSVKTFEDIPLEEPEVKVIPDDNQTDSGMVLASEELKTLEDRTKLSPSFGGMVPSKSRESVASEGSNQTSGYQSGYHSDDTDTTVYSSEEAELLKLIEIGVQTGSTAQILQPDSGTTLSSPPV
- assay.remarks: Kinase inhibition assay (33P transfer), Kdr
- Type: biochemical
- cond: Table 3; read-out: KDR-1
Let's look at some molecules and their measured IC50.

Examples from the recorded data:
molecular.string	measured.on	IC50
COc1cc(Nc2ncnc(NN3CCOCC3)n2)cc(OC)c1OC	Kdr (Homo sapiens, UniProt P35968)	> 12.4 µM
COCCOc1ccc(Nc2ncnc(Nc3ccc(C)c(O)c3)n2)cc1OCCOC	Kdr (Homo sapiens, UniProt P35968)	< 0.906 µM
COc1ccc(Nc2ncnc(Nc3ccc4[nH]ccc4c3)n2)cc1OC	Kdr (Homo sapiens, UniProt P35968)	1.1 to 6.62 µM
COc1cc(Nc2ncnc(Nc3ccc(OCc4ccccc4)cc3)n2)cc(OC)c1OC	Kdr (Homo sapiens, UniProt P35968)	< 0.871 µM
COc1cc(Nc2ncnc(-n3c(NCCO)nc4ccccc43)n2)cc(OC)c1OC	Kdr (Homo sapiens, UniProt P35968)	0.914 to 5.49 µM

Using the record for CCOC(=O)Cc1ccc(Nc2ncnc(Nc3cc(-c4ccco4)n[nH]3)n2)cc1 , state its measured IC50.
0.987 to 5.92 µM

Please look at this molecule and report its IC50: NC(=O)c1cccc(Nc2ncnc(Nc3cc(-c4ccco4)n[nH]3)n2)c1
< 1.1 µM

* * *

- measured.on: PDGFRB (Homo sapiens, UniProt P09619)
- Construct: Kinases are expressed as either kinase domains or full length constructs; made in house
- assay.remarks: Kinase inhibition assay (33P transfer), PDGFRB
- Assay type: biochemical
- cond: read-out: PDGFRB-1
quantity.name: IC50

Please review the entries below; each comes with its answer.
molecular.string	result.value
COC(=O)c1ccc(-c2cc(Nc3ncnc(NCCCO)n3)[nH]n2)cc1	1.08 to 6.5 µM
c1ccc(-c2cc(Nc3ncnc(Nc4ccc5[nH]ncc5c4)n3)[nH]n2)cc1	< 1.08 µM
COc1cc(Nc2ncnc(N(C)c3ccc4c(cnn4Cc4ccccc4)c3)n2)cc(OC)c1OC	0.804 to 4.82 µM
COc1ccc(Nc2ncnc(Nc3cc(-c4ccc(C)cc4)n[nH]3)n2)c(C)c1	1.03 to 6.19 µM
COc1ccc(Nc2ncnc(NCCCOC(C)C)n2)cc1OC	> 13 µM
COc1cc(Nc2ncnc(N[C@@H]3CCCc4ccccc43)n2)cc(OC)c1OC	> 11 µM
COc1cc(Nc2ncnc(-c3cccnc3NC3CCN(Cc4ccccc4)CC3)n2)cc(OC)c1OC	> 8.53 µM
COc1cc(Nc2ncnc(N3CCCc4c(Cl)cccc43)n2)cc(OC)c1OC	< 0.935 µM

Give recorded IC50. COc1ccc(Nc2ncnc(Nc3ccc4c(cnn4Cc4ccccc4)c3)n2)cc1
0.945 to 5.67 µM

Could you please provide reported IC50 for COc1cccc(Nc2ncnc(N(C)c3cccc(Cl)c3)n2)c1 ? Thanks!
7.02 to 10.2 µM

* * *

This listing pairs compounds with measured pIC50.
- measured.on: AKT (Homo sapiens, UniProt Q9Y243)
- Construct: Kinases are expressed as either kinase domains or full length constructs; made in house
- assay.remarks: Kinase inhibition assay (33P transfer), AKT
- Assay type: biochemical
- cond: Table 2, class symbols A-E; read-out: AKT3-1
- Source text: The inhibitor compounds described herein are screened in the following manner. […] Kinases are expressed as either kinase domains or full length constructs fused to glutathione S-transferase (GST) or polyHistidine tagged fusion proteins in either E. colior Baculovirus-High Five expression systems. […]
pIC50: −log10 of the molar value.

compound	pIC50
CCOc1cccc(Nc2ncnc(Nc3cc(-c4ccc(C(=O)OC)cc4)n[nH]3)n2)c1	< 4.98
CC(C)Nc1ncccc1-c1ncnc(Nc2ccc3[nH]ncc3c2)n1	4.89 to 5.00

Supply reported pIC50 belonging to this compound: COc1cc(Nc2ncnc(-c3cccnc3NCC(C)c3ccccc3)n2)cc(OC)c1OC (centres unmarked)
< 5.02

# return recorded pIC50 for entry COc1cc(Nc2ncnc(N(CCO)c3ccccc3)n2)cc(OC)c1OC
< 4.95

Input COC(=O)c1ccc(N(C)c2ncnc(Nc3ccc(OC)c(OC)c3)n2)cc1 , output reported pIC50.
< 4.94

Specify pIC50 for O=S(=O)(O)c1cccc(Nc2ncnc(Nc3cc(-c4ccco4)[nH]n3)n2)c1 and stop.
5.22 to 6.00

Supply recorded pIC50 for COc1ccc(Nc2ncnc(N(C)c3cccc(C)c3)n2)cc1OC here.
< 4.89

Query pIC50 for COc1ccc(Nc2ncnc(N(C)C3CCN(C)CC3)n2)cc1OC
< 4.90

* * *

- measured.on: EGFR (Homo sapiens, UniProt P00533)
- Construct: Kinases are expressed as either kinase domains or full length constructs; made in house
- Sequence (P00533 25-1210, species assumed): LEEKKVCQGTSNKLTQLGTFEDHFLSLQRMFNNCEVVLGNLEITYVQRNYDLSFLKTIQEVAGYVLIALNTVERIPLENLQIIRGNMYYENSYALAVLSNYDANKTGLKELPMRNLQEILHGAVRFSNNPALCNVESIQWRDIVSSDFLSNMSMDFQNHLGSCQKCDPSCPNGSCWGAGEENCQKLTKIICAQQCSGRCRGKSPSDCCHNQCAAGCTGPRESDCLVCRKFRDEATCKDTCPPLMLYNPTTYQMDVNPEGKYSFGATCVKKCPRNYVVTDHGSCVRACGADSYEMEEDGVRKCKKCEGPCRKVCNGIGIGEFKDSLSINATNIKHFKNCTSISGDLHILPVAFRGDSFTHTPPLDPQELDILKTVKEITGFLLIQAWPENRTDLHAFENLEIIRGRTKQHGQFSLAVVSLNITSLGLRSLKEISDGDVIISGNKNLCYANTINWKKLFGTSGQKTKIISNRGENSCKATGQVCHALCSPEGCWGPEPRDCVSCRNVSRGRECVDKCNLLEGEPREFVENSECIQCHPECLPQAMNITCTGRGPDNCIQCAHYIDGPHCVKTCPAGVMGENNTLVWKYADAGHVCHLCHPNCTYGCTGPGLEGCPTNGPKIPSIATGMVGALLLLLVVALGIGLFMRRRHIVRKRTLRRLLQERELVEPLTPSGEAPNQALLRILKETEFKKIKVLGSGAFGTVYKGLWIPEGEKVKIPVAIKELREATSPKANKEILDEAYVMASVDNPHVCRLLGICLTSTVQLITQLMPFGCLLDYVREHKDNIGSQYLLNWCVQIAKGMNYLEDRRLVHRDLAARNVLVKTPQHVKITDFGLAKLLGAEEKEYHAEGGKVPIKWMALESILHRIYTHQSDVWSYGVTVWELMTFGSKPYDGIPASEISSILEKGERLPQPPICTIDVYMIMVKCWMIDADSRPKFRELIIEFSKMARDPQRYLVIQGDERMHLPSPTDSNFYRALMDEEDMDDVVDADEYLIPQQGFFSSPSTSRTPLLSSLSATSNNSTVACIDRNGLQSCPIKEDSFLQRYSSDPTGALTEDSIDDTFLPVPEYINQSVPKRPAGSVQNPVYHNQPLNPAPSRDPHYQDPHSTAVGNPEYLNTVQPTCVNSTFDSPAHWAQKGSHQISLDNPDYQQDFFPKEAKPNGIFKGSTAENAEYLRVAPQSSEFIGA
- assay.remarks: Kinase inhibition assay (33P transfer), EGFR
- Format: biochemical
- cond: Table 2, kinase inhibition class; read-out: EGFR-1
pIC50: −log10 of the molar value.
quantity.name: pIC50

Worked examples follow.
molecular.string	result.value
COc1cc(Nc2ncnc(-c3ccccc3)n2)cc(OC)c1OC	< 4.88
COc1cc(Nc2ncnc(Nc3ccccc3F)n2)cc(OC)c1OC	> 5.97

For the compound N#CCc1ccc(Nc2ncnc(Nc3ccc4c(cnn4Cc4ccccc4)c3)n2)cc1 , report pIC50.
> 6.03

* * *

Recorded measurements of pIC50, one per entry
- measured.on: PDGFRB (Homo sapiens, UniProt P09619)
- Construct: Kinases are expressed as either kinase domains or full length constructs; made in house
- assay.remarks: Kinase inhibition assay (33P transfer), PDGFRB
- Assay type: biochemical
- cond: read-out: PDGFRB-1
pIC50: −log10 of the molar value.

In one line, give reported pIC50 of the entry CCN1CCCC1CNc1ncnc(Nc2ccc(OC)c(OC)c2)n1 (stereo not drawn) .
5.17 to 5.95

Supply measured pIC50 of COc1ccc(Nc2ncnc(NCc3c(C)cccc3Cl)n2)cc1OC in your reply.
< 4.93

Note pIC50 for the compound shown: CC(=O)N1CCc2cc(Nc3ncnc(N4CCCc5cc(C)ccc54)n3)ccc21
> 6.00

Tell us which pIC50 value is on record for c1ccc(CNc2ncccc2-c2ncnc(Nc3ccc(N4CCOCC4)cc3)n2)cc1
> 6.04

Query pIC50 for Brc1cccc(Nc2ncnc(Nc3ccc4c(cnn4Cc4ccccc4)c3)n2)c1
5.02 to 5.13

Tell us which pIC50 value is on record for Cc1nccc(-c2cccc(Nc3ncnc(Nc4ccc5c(cnn5Cc5ccccc5)c4)n3)c2)n1
> 6.08

Specify reported pIC50 for the compound shown: COc1cc(Nc2ncnc(-c3cccnc3Nc3ccc(Oc4ccccc4)cc3)n2)cc(OC)c1OC
5.17 to 5.34

* * *

- measured.on: ErbB2 (Homo sapiens)
- Sequence (P04626 23-1255, species assumed): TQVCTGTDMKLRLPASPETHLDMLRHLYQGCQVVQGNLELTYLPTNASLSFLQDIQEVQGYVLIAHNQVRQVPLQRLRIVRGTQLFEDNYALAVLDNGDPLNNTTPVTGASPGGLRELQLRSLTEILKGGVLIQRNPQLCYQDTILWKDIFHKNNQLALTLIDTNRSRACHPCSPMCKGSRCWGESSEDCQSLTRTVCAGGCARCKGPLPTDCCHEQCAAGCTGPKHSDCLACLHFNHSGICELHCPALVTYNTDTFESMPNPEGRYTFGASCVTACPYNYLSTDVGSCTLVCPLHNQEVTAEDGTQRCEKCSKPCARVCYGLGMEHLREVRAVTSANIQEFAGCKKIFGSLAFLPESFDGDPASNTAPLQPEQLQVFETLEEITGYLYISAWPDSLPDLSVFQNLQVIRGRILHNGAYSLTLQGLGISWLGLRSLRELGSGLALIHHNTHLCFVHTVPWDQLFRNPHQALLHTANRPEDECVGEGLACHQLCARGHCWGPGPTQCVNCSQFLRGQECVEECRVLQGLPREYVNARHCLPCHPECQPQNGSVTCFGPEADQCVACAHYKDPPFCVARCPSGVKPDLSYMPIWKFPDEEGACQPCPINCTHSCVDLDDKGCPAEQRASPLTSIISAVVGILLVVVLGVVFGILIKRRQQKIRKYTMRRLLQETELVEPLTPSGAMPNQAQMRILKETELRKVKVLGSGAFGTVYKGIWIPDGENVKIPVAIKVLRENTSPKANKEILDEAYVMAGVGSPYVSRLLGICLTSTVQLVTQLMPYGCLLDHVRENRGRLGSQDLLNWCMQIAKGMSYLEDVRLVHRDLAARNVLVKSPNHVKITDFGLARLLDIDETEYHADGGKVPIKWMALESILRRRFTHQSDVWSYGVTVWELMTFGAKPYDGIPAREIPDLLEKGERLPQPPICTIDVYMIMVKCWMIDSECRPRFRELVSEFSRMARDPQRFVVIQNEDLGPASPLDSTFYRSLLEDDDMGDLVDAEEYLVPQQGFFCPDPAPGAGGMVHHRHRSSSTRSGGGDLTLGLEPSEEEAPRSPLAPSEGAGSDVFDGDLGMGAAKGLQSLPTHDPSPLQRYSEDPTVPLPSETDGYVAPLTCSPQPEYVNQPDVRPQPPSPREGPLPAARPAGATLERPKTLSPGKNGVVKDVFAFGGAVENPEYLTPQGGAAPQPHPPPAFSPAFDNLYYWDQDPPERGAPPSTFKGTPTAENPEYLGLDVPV
pIC50: −log10 of the molar value.
quantity.name: pIC50

compound	result.value
COC(=O)c1ccc(-c2cc(Nc3ncnc(Nc4cccc(Cc5nnn[nH]5)c4)n3)[nH]n2)cc1	5.29 to 6.07
Cc1ccc(-c2cc(Nc3ncnc(Nc4cc(C)ccc4C)n3)[nH]n2)cc1	5.19 to 5.97
C#Cc1cccc(Nc2ncnc(Nc3cc(-c4ccccc4)n[nH]3)n2)c1	< 4.90
COc1ccc(Nc2ncnc(N(C)c3ccc(C)cc3)n2)cc1OC	5.17 to 5.94
COc1ccc(Cl)cc1Nc1ncnc(Nc2cc(OC)c(OC)c(OC)c2)n1	5.24 to 6.02
CCN(c1ccccc1)c1ncnc(Nc2cc(OC)c(OC)c(OC)c2)n1	5.20 to 5.98
COc1cc(Nc2ncnc(-n3c(Nc4ccc5[nH]ccc5c4)nc4ccccc43)n2)cc(OC)c1OC	5.16 to 5.33
COc1ccc(Nc2ncnc(N(C)c3ccc(S(=O)(=O)O)cc3)n2)cc1OC	< 4.97

GET pIC50 | system: ErbB2 (Homo sapiens) | item: COc1cc(Nc2ncnc(-n3c(NCc4ccccn4)nc4ccccc43)n2)cc(OC)c1OC
< 5.03

Report value: pIC50, system: ErbB2 (Homo sapiens), compound: COc1cc(Nc2ncnc(Nc3ccc4c(ccn4Cc4ccccc4)c3)n2)cc(OC)c1OC
> 6.08

Report value: pIC50, system: ErbB2 (Homo sapiens), compound: COc1cc(Nc2ncnc(Nc3cccc(Cl)c3)n2)cc(OC)c1
> 5.95

Lab note: ErbB2 (Homo sapiens) assay, enter pIC50 for COc1cc(Nc2ncnc(-n3c(NCc4ccc([N+](=O)[O-])cc4)nc4ccccc43)n2)cc(OC)c1OC here
5.18 to 5.34

Name the recorded pIC50 of COc1ccc(Nc2ncnc(NCc3ncc(C(F)(F)F)cc3Cl)n2)cc1OC , assay system ErbB2 (Homo sapiens).
< 4.99

Find the measured pIC50 of Cc1cccc(Nc2ncnc(Nc3cccc(Br)c3)n2)c1 with ErbB2 (Homo sapiens) as test system.
5.01 to 5.17

Look up and report measured pIC50 (ErbB2 (Homo sapiens)) for the following compound: Fc1ccc(CNc2ncnc(Nc3cc(-c4ccco4)n[nH]3)n2)cc1
< 4.89

Fill in: pIC50 on ErbB2 (Homo sapiens), entry COc1ccc(Nc2ncnc(N(C)CC(O)c3ccccc3)n2)cc1OC (centres unmarked)
< 4.93

Provide pIC50, tested on ErbB2 (Homo sapiens), for COc1cc(Nc2ncnc(Nc3cc(C(F)(F)F)ccc3F)n2)cc(OC)c1OC .
5.10 to 5.26

Report pIC50 on ErbB2 (Homo sapiens) for this entry: CN(C)CCNc1ncnc(Nc2ccc3c(cnn3Cc3ccccc3)c2)n1
< 4.94

Write down measured pIC50 (ErbB2 (Homo sapiens)) for this compound. c1ccc(CNc2ncccc2-c2ncnc(Nc3cccc(Cn4ccnn4)c3)n2)cc1
< 4.99

Give measured pIC50 for COc1cc(Nc2ncnc(NC(=O)Nc3ccccc3)n2)cc(OC)c1OC (ErbB2 (Homo sapiens)).
5.05 to 5.22

Report value only: pIC50, ErbB2 (Homo sapiens), CN(c1cccc(Cl)c1)c1ncnc(N[C@@H]2CCN(Cc3ccccc3)C2)n1
< 4.94

Determine reported pIC50 for COc1cc(Nc2ncnc(-n3c(Nc4cccc5cccnc45)nc4ccccc43)n2)cc(OC)c1OC ; test system: ErbB2 (Homo sapiens).
5.34 to 6.11

Check ErbB2 (Homo sapiens) data and give pIC50 for COc1cc(Nc2ncnc(-n3c(NCc4cccs4)nc4ccccc43)n2)cc(OC)c1OC .
5.31 to 6.09

Give the observed pIC50 of CCOC(=O)c1cccc(Nc2ncnc(Nc3cc(-c4ccc(C(=O)OC)cc4)n[nH]3)n2)c1 for ErbB2 (Homo sapiens).
< 5.01

Name the value of pIC50 reported for Fc1ccc(Nc2ncnc(Nc3ccc4[nH]ncc4c3)n2)cc1Cl when tested on ErbB2 (Homo sapiens).
5.17 to 5.95

Provide ErbB2 (Homo sapiens) pIC50 reading for COc1cc(Nc2ncnc(Nc3cc(-c4ccc(C(=O)NCCc5ccccc5)cc4)n[nH]3)n2)cc(OC)c1OC .
5.21 to 5.37
